# ASSAY_OVERVIEW: Stability in rat liver microsomes assessed as parent compound remaining at 0.5 uM after 10 mins by LC-MS analysis
Just a reminder that ties go to f: only remaining at 10 min, 0.5 µM strictly below 30% counts as t.

Before answering, review these 3 worked examples.
CN1CCN(CCCN(CC2Cc3ccccc3CN2C)[C@H]2CCCc3cccnc32)CC1 (single isomer, unassigned); t
CCN1CCN(CCCN(C[C@H]2Cc3ccccc3CN2)[C@H]2CCCc3cccnc32)CC1; t
c1ccc2c(c1)CN[C@@H](CN(CCCCN1CCNCC1)[C@H]1CCCc3cccnc31)C2; t

# input State whether 30% exceeds remaining at 10 min, 0.5 µM recorded for NC(=O)N1CCN(CCCN(C[C@H]2Cc3ccccc3CN2)[C@H]2CCCc3cccnc32)CC1 .
# output t

# input State whether 30% exceeds remaining at 10 min, 0.5 µM recorded for c1ccc2c(c1)CN[C@@H](CN(CCC1CCNCC1)[C@H]1CCCc3cccnc31)C2 .
# output t

# input State whether 30% exceeds remaining at 10 min, 0.5 µM recorded for c1cnc2c(c1)CCC[C@@H]2N(CCCN1CCNCC1)Cc1nc2ccccc2s1 .
# output t

###

# TARGET_DESC: Cytochrome P450 2D6 (Homo sapiens, UniProt P10635)
# Sequence (P10635 whole entry): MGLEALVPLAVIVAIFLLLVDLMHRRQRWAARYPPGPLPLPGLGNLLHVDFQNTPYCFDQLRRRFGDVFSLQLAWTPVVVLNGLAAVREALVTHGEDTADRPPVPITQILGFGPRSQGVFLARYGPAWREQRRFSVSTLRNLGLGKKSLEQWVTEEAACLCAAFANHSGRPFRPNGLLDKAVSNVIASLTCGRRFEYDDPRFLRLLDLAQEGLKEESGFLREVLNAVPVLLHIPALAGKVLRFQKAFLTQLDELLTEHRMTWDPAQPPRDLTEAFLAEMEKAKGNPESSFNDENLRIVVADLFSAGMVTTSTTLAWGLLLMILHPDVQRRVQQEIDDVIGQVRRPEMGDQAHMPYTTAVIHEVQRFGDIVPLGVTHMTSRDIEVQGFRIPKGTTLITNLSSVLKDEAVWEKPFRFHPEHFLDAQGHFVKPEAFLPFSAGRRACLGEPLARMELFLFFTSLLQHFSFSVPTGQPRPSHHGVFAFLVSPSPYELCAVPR
Let's look at some molecules and their measured IC50.
Please reply with the bare figure in µM and do not write the unit itself.

NC(=O)N1CCN(CCCN(C[C@H]2Cc3ccccc3CN2)[C@H]2CCCc3cccnc32)CC1; 4.14
c1ccc2c(c1)CN[C@H](CN(CCCN1CCNCC1)[C@H]1CCCc3cccnc31)C2; 1.4
CN1CCN(CCCN(C[C@H]2Cc3ccccc3CN2)[C@H]2CCCc3cccnc32)CC1; 5.6

# input Print Cytochrome P450 2D6 (Homo sapiens, UniProt P10635) IC50 for c1ccc2c(c1)CN[C@@H](CN(CCN1CCNCC1)[C@H]1CCCc3cccnc31)C2 .
# output 4.21

# input Print Cytochrome P450 2D6 (Homo sapiens, UniProt P10635) IC50 for c1ccc2c(c1)CN[C@@H](CN(CC[C@H]1CCCNC1)[C@H]1CCCc3cccnc31)C2 .
# output 0.11

###

# TARGET_DESC: UniProt P08913
# Sequence (P08913 whole entry): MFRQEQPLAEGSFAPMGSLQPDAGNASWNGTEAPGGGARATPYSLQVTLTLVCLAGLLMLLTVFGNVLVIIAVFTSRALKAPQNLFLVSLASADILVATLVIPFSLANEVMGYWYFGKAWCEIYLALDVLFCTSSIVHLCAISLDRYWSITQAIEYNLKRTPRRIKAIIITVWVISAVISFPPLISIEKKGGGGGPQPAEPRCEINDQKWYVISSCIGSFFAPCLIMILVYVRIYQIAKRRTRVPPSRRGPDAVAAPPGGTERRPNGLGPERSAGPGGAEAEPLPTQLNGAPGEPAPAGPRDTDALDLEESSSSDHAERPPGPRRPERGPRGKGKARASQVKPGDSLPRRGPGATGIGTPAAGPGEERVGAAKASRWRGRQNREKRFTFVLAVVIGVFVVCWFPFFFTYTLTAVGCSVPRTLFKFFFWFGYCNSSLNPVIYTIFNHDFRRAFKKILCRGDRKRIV
REPORTED_ENDPOINT: IC50

c1ccc2c(c1)CN[C@@H](CN(CC[C@H]1CCCNC1)[C@H]1CCCc3cccnc31)C2; 5.9 µM
NCCCCN(C[C@H]1Cc2ccccc2CN1)[C@H]1CCCc2cccnc21; 3.7 µM

Next item in the queue.
# input Query IC50 for c1ccc2c(c1)CN[C@@H](CN(CCCN1CCNCC1)[C@H]1CCCc3cccnc31)C2
# output > 30 µM

###

Below are IC50 values recorded for Cytochrome P450 3A4 (Homo sapiens).

Reference set, count: 3
CN1CCN(CCCN(CC2Cc3ccccc3CN2C)[C@H]2CCCc3cccnc32)CC1 (single isomer, unassigned); > 20 µM
c1ccc2c(c1)CN[C@@H](CN(CCC1CCNCC1)[C@H]1CCCc3cccnc31)C2; > 12 µM
c1ccc2c(c1)CN[C@@H](CN(CCN1CCNCC1)[C@H]1CCCc3cccnc31)C2; > 12 µM

# input Print Cytochrome P450 3A4 (Homo sapiens) IC50 for c1cnc2c(c1)CN[C@@H](CN(CCCN1CCNCC1)[C@H]1CCCc3cccnc31)C2 .
# output > 20 µM

# input Print Cytochrome P450 3A4 (Homo sapiens) IC50 for c1ccc2c(c1)CN[C@@H](CN(CC1CCNCC1)[C@H]1CCCc3cccnc31)C2 .
# output > 12 µM

###

Let's look at some compounds and their measured pIC50.
# TARGET_DESC: Acetylcholinesterase (Homo sapiens, UniProt P22303)
# Sequence (P22303 whole entry): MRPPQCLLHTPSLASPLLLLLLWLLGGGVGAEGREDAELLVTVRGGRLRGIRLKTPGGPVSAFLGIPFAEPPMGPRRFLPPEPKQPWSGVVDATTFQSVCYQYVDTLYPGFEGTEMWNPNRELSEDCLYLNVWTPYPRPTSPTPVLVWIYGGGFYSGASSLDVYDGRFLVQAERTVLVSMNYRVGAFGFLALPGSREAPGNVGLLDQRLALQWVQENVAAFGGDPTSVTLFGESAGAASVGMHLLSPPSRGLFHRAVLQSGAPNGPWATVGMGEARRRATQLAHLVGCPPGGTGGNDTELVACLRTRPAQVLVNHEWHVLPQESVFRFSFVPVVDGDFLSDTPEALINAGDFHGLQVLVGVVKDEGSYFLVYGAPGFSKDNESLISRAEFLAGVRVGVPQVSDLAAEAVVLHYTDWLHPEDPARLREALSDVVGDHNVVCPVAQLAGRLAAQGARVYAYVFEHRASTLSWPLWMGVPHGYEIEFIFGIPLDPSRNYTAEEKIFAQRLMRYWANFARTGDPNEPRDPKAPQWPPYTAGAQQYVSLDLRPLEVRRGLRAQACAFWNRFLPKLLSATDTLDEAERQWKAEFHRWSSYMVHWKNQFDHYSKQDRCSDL
pIC50: −log10 of the molar value.

Reference set, count: 2
c1ccc2c(c1)CN[C@@H](CN(CCCN1CCNCC1)[C@H]1CCCc3cccnc31)C2; < 4.52
NCCCCN(C[C@H]1Cc2ccccc2CN1)[C@H]1CCCc2cccnc21; < 4.52

# input Query pIC50 for c1ccc2c(c1)CN[C@@H](CN(CC[C@H]1CCCNC1)[C@H]1CCCc3cccnc31)C2
# output 4.97

###

Let's look at some compounds and their measured remaining at 10 min, 0.5 µM.
# ASSAY_OVERVIEW: Stability in mouse liver microsomes assessed as parent compound remaining at 0.5 uM after 10 mins by LC-MS analysis
Please reply with the bare figure in % and do not write the unit itself.

c1cnc2c(c1)CCC[C@@H]2N(CCCN1CCNCC1)Cc1nc2ccccc2s1; 45
c1ccc2c(c1)CN[C@@H](CN(CCCN1CCNCC1)[C@H]1CCCc3cccnc31)C2; 92

# input Query remaining at 10 min, 0.5 µM for c1ccc2c(c1)CN[C@@H](CN(CC[C@@H]1CCCNC1)[C@H]1CCCc3cccnc31)C2
# output 23

# input Query remaining at 10 min, 0.5 µM for CCN1CCN(CCCN(C[C@H]2Cc3ccccc3CN2)[C@H]2CCCc3cccnc32)CC1
# output 19

# input Query remaining at 10 min, 0.5 µM for c1cnc2c(c1)CN[C@@H](CN(CCCN1CCNCC1)[C@H]1CCCc3cccnc31)C2
# output 78

# input Query remaining at 10 min, 0.5 µM for c1ccc2c(c1)CN[C@@H](CN(CCC1CCNCC1)[C@H]1CCCc3cccnc31)C2
# output 32

###

pIC50: −log10 of the molar value.
Below are pIC50 values recorded for Cytochrome P450 3A4 (Homo sapiens).

c1cnc2c(c1)CCC[C@@H]2N(CCCN1CCNCC1)Cc1cc2ccccc2cn1; < 4.70
c1cnc2c(c1)CCC[C@@H]2N(CCCN1CCNCC1)Cc1nc2ccccc2s1; 5.03
CN1CCN(CCCN(C[C@H]2Cc3ccccc3CN2)[C@H]2CCCc3cccnc32)CC1; < 4.70
CCN1CCN(CCCN(C[C@H]2Cc3ccccc3CN2)[C@H]2CCCc3cccnc32)CC1; < 4.70
c1ccc2c(c1)CN[C@@H](CN(CC[C@H]1CCCNC1)[C@H]1CCCc3cccnc31)C2; < 4.92

# input Print Cytochrome P450 3A4 (Homo sapiens) pIC50 for c1ccc2c(c1)CN[C@@H](CN(CCCCN1CCNCC1)[C@H]1CCCc3cccnc31)C2 .
# output < 4.92

# input Print Cytochrome P450 3A4 (Homo sapiens) pIC50 for NC(=O)N1CCN(CCCN(C[C@H]2Cc3ccccc3CN2)[C@H]2CCCc3cccnc32)CC1 .
# output < 4.70

# input Print Cytochrome P450 3A4 (Homo sapiens) pIC50 for c1cnc2c(c1)CN[C@H](CN(CCCN1CCNCC1)[C@H]1CCCc3cccnc31)C2 .
# output < 4.70

# input Print Cytochrome P450 3A4 (Homo sapiens) pIC50 for c1cnc2c(c1)CCC[C@@H]2N(CCCN1CCNCC1)Cc1nc2ccccc2[nH]1 .
# output 4.90

###

Below are pIC50 values recorded for UniProt P10635.
Please treat pIC50 as minus the base-10 logarithm of the molar concentration.

c1ccc2c(c1)CN[C@@H](CN(CCCN1CCNCC1)[C@H]1CCCc3cccnc31)C2; 5.67
CC(C)N1CCN(CCCN(C[C@H]2Cc3ccccc3CN2)[C@H]2CCCc3cccnc32)CC1; 5.18
c1ccc2c(c1)CN[C@@H](CN(CC1CCNCC1)[C@H]1CCCc3cccnc31)C2; 5.73

# input Print UniProt P10635 pIC50 for c1cnc2c(c1)CCC[C@@H]2N(CCCN1CCNCC1)Cc1cc2ccccc2cn1 .
# output 5.53

# input Print UniProt P10635 pIC50 for c1ccc2c(c1)CN[C@@H](CN(CCCN1CCN(C3CC3)CC1)[C@H]1CCCc3cccnc31)C2 .
# output 5.22

# input Print UniProt P10635 pIC50 for c1ccc2c(c1)CN[C@@H](CN(CC[C@@H]1CCCNC1)[C@H]1CCCc3cccnc31)C2 .
# output 7.52

# input Print UniProt P10635 pIC50 for CN1CCN(CCCN(CC2Cc3ccccc3CN2C)[C@H]2CCCc3cccnc32)CC1 (single isomer, unassigned) .
# output 5.29
